MEASURED_TARGET: human orexin-2 receptor (Homo sapiens (Human))
EXPERIMENT_DESCRIPTION: Human orexin 2 receptor radioligand binding ([3H]-EMPA competition)
CONDITIONS_USED: HEK293 cells stably expressing human orexin-2 receptor; [3H]-EMPA 5 nM final; apparent Ki=IC50/(1+C/Kd), Kd=2 nM; read-out: OR 2 Ki
pKi: −log10 of the molar value.
Label Met for high-side pKi (at or above 7) and Not met for low-side pKi (below it).

>>> answer_label("COc1cc(OC)nc(N2CC3CN(C(=O)c4ccccc4-n4nccn4)CC3C2)n1 (stereo not shown)")
"Met"
>>> answer_label("O=C(c1ccccc1-c1nnc[nH]1)N1CC2CN(c3nccc(-c4ccccc4)n3)CC2C1 (stereo not shown)")
"Not met"
>>> answer_label("Cc1ccc(C)c(C(=O)N2CC3CN(c4nc(C)cc(C)n4)CC3C2)c1 (stereo not shown)")
"Not met"
>>> answer_label("Cc1cc(C)nc(N2CC3CN(C(=O)c4ccc(F)c5ccccc45)CC3C2)n1 (stereo not shown)")
"Met"
>>> answer_label("Cc1ncnc(N2CC3CN(C(=O)c4c(F)cccc4-n4nccn4)CC3C2)n1 (stereo not shown)")
"Not met"
>>> answer_label("Cc1cc(C)nc(N2CC3CN(C(=O)c4cccnc4-c4ccnn4C4CCCCO4)CC3C2)n1 (stereo not shown)")
"Not met"
>>> answer_label("Cc1cc(N2CC3CN(C(=O)c4nc(C)sc4-c4ccc(F)cc4)CC3C2)nc(C)n1 (stereo not shown)")
"Not met"
>>> answer_label("Cc1cc(C)nc(N2CC3CN(C(=O)c4c(F)cccc4-c4ncccn4)CC3C2)n1 (stereo not shown)")
"Met"

###

MEASURED_TARGET: human orexin-2 receptor (Homo sapiens (Human), UniProt O43614)
Sequence (O43614 whole entry): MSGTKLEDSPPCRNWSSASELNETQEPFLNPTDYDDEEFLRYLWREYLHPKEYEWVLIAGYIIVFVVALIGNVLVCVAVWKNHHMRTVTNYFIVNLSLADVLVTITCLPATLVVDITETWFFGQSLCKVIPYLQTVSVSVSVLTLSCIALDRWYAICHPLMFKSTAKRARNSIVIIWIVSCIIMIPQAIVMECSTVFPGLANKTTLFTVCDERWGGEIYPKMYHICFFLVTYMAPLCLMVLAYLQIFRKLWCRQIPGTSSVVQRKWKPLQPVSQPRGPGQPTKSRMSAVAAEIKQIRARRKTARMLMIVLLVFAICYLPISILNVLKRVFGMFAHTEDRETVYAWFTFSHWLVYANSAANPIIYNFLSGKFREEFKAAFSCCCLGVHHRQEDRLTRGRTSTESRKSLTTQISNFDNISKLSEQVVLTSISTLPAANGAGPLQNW
EXPERIMENT_DESCRIPTION: Human orexin 2 receptor radioligand binding ([3H]-EMPA competition)
CONDITIONS_USED: HEK293 cells stably expressing human orexin-2 receptor; [3H]-EMPA 5 nM final; apparent Ki=IC50/(1+C/Kd), Kd=2 nM; read-out: OR 2 Ki
pKi: −log10 of the molar value.
REPORTED_ENDPOINT: pKi

>>> reported_result("Cc1cc(C)nc(N2CC3CN(C(=O)c4c(C)cccc4C)CC3C2)n1 (centres unmarked)")
6.37
>>> reported_result("Cc1cc(C)nc(N2CC3CN(C(=O)c4cc(F)ccc4C)CC3C2)n1 (centres unmarked)")
6.08
>>> reported_result("Cc1cccc(N2CC3CN(C(=O)c4ccccc4-c4cccs4)CC3C2)n1 (centres unmarked)")
6.99
>>> reported_result("COc1ccnc(N2CC3CN(C(=O)c4ccc(F)cc4-n4nccn4)CC3C2)n1 (centres unmarked)")
7.35
>>> reported_result("COc1ccnc(N2CC3CN(C(=O)c4ccccc4-c4ccccc4)CC3C2)n1 (centres unmarked)")
6.47

###

In this section, each of the compounds is paired with its reported pKi.
MEASURED_TARGET: human orexin-2 receptor (Homo sapiens (Human), UniProt O43614)
EXPERIMENT_DESCRIPTION: Human orexin 2 receptor radioligand binding ([3H]-EMPA competition)
CONDITIONS_USED: HEK293 cells stably expressing human orexin-2 receptor; [3H]-EMPA 5 nM final; apparent Ki=IC50/(1+C/Kd), Kd=2 nM; read-out: OR 2 Ki
pKi: −log10 of the molar value.
REPORTED_ENDPOINT: pKi

>>> reported_result("Cc1cc(C)nc(N2CC3CN(C(=O)c4ccccc4C(C)C)CC3C2)n1 (stereo not drawn) [Example 91]")
6.27
>>> reported_result("COc1ccc(C(=O)N2CC3CN(c4ncc(C)c(C)n4)CC3C2)c(-n2nccn2)c1 (stereo not drawn) [Example 380]")
7.82
>>> reported_result("COc1cc(OC)nc(N2CC3CN(C(=O)c4ncccc4-c4ccccc4)CC3C2)n1 (stereo not drawn) [Example 207]")
5.05
>>> reported_result("Cc1cc(C)nc(N2CC3CN(C(=O)c4ccc(F)cc4-c4ncccn4)CC3C2)n1 (stereo not drawn) [Example 231]")
7.17
>>> reported_result("COc1cccc(OC)c1C(=O)N1CC2CN(c3cnc4ccccc4n3)CC2C1 (stereo not drawn) [Example 165]")
6.07
>>> reported_result("COc1ccc(C(=O)N2CC3CN(c4cc(C)c5ccccc5n4)CC3C2)c(OC)c1 (stereo not drawn) [Example 170]")
6.02
